# Tested on: HeLa
# Test description: cells
# Assay type: functional
# Test conditions: Homo sapiens
Quantity measured: inhibition at 5 µM

INSERT INTO assay_data (compound, observed_result) VALUES
  ('OC(CN1CCNCC1)Cn1c2ccc(Br)cc2c2cc(Br)ccc21 (centres undefined)', '77%'),
  ('FC(F)(CN1CCNCC1)Cn1c2ccc(Br)cc2c2cc(Br)ccc21', '61%'),
  ('COc1ccc(CN2CCN(CC(O)Cn3c4ccc(Br)cc4c4cc(Br)ccc43)CC2)cc1 (centres undefined)', '61%'),
  ('OC(CN1CCN(CCN2CCOCC2)CC1)Cn1c2ccc(Br)cc2c2cc(Br)ccc21 (centres undefined)', '21%');
